Each item that follows carries a reported IC50.
Target: E-selectin (Homo sapiens)
Sequence (P16581 whole entry): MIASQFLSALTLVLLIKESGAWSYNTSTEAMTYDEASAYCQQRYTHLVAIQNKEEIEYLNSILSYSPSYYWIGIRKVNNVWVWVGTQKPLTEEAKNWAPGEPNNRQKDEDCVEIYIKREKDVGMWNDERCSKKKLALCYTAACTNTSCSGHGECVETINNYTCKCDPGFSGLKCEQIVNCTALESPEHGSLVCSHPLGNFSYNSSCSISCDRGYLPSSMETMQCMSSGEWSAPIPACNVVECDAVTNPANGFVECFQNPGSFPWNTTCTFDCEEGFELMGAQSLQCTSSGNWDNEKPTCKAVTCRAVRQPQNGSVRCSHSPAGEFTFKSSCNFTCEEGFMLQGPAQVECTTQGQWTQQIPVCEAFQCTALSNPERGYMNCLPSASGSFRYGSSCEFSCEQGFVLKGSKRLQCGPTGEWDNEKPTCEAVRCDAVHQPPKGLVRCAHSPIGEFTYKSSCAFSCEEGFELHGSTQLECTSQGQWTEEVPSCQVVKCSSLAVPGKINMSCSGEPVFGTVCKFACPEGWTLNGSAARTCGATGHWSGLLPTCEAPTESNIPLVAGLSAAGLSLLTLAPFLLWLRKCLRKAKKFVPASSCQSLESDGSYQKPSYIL
Assay: Compound was tested in a cell-free SLe-polyacrylamide glycoconjugate binding assay (assay A) in Selectin E
// return numeric value only (unit: mM, not printed)

molecule	measured target	measurement
O=C(O)CCC(C(=O)O)N(C(=O)CC1OC(CO)C(O)C(O)C1O)C(CCC(=O)O)C(=O)NCC(=O)O (stereo not drawn)	E-selectin (Homo sapiens)	3

With those in mind, consider the next molecule.
[ask] Can you look up the measured IC50 of COC(=O)CNC(=O)C(CC1OC(C)C(O)C(O)C1O)N(Cc1ccccc1)C(=O)C(NC(=O)CCC(=O)O)C(O)CO (stereo not drawn) for me?
[reply] 0.84

====

biological target: UniProt:P16581; assay: Compound was tested in a cell-free SLe-polyacrylamide glycoconjugate binding assay (assay B) in Selectin E
pIC50: −log10 of the molar value.
Each item that follows carries a reported pIC50.

Known pIC50 results, listed for orientation:
molecule	pIC50
O=C(O)CCC(=O)N(C(CCC(=O)O)C(=O)O)C(CC1OC(CO)C(O)C(O)C1O)C(=O)NCC(=O)O (stereo not drawn)	< 2.40
COC(=O)CNC(=O)C(CCC(=O)O)N(C(=O)CC1OC(CO)C(O)C(O)C1O)C(CCC(=O)O)C(=O)O (stereo not drawn)	< 2.40

With those in mind, consider the next molecule.
[ask] Which measured pIC50 belongs to CC(C(=O)NC(C)(C)C)N(C(=O)CC1OC(COc2ccccc2)C(O)C(O)C1O)C(CCC(=O)O)C(=O)O (stereo not drawn) , tested on UniProt:P16581?
[reply] < 2.60

====

Target: P-selectin (Homo sapiens, UniProt P16109)
Sequence (P16109 whole entry): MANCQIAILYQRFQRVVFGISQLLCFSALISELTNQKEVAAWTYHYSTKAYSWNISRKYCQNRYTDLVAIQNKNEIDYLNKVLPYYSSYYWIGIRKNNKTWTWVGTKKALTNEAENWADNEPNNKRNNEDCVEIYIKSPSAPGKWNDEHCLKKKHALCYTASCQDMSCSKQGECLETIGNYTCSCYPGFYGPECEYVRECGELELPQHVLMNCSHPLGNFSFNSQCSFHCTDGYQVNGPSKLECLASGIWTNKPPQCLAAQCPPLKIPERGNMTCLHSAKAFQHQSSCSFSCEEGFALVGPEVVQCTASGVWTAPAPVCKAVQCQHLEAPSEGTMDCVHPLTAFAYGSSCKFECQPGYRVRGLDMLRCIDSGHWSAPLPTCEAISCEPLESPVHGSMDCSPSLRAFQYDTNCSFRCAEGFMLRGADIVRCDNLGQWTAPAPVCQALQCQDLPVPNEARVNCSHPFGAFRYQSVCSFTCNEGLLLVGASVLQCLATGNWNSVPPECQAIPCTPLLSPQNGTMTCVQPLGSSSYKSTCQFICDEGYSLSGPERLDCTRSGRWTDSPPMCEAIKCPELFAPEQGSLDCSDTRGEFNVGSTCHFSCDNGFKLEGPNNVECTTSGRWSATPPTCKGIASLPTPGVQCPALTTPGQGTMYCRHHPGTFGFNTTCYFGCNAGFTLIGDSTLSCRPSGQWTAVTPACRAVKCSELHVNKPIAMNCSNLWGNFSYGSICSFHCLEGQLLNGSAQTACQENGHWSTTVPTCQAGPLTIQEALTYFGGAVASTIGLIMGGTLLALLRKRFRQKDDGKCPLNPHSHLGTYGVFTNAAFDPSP
Test: Tested in a cell-free SLe-polyacrylamide glycoconjugate binding assay (assay A) in P-selectin
metric: IC50

molecule	IC50
CCOCCOCCOCCOCCCCOCC1OC(CC(=O)NC(CCC(=O)O)C(=O)O)C(O)C(O)C1O (stereo not drawn)	> 3 mM
CC(=O)N[C@H]1[C@H]([C@H](O)[C@H](O)CO)O[C@@](O[C@H]2[C@@H](O)[C@@H](CO)O[C@@H](O[C@@H]([C@H](O[C@@H]3O[C@@H](C)[C@@H](O)[C@@H](O)[C@@H]3O)[C@H](C=O)NC(C)=O)[C@H](O)CO)[C@@H]2O)(C(=O)O)C[C@@H]1O	> 3 mM

With those in mind, consider the next molecule.
[ask] Can you look up the measured IC50 of CCOCCOCCOCCOCCCCOCC1OC(CC(=O)N(C(C)C(=O)NCC(=O)OC)C(CCC(=O)O)C(=O)O)C(O)C(O)C1O (stereo not drawn) for me?
[reply] > 3 mM
